The reader will find reported EC50 values listed item by item below.
Target: CFTR in F508del/MF-HBE cells (Homo sapiens, UniProt P13569, DEL508-508)
Construct: human bronchial epithelial (HBE) cells derived from CF subjects heterozygous for F508del and a minimal function CFTR mutation; endogenous in cells
Sequence (P13569 with tags, fused parts or gaps DEL508-508): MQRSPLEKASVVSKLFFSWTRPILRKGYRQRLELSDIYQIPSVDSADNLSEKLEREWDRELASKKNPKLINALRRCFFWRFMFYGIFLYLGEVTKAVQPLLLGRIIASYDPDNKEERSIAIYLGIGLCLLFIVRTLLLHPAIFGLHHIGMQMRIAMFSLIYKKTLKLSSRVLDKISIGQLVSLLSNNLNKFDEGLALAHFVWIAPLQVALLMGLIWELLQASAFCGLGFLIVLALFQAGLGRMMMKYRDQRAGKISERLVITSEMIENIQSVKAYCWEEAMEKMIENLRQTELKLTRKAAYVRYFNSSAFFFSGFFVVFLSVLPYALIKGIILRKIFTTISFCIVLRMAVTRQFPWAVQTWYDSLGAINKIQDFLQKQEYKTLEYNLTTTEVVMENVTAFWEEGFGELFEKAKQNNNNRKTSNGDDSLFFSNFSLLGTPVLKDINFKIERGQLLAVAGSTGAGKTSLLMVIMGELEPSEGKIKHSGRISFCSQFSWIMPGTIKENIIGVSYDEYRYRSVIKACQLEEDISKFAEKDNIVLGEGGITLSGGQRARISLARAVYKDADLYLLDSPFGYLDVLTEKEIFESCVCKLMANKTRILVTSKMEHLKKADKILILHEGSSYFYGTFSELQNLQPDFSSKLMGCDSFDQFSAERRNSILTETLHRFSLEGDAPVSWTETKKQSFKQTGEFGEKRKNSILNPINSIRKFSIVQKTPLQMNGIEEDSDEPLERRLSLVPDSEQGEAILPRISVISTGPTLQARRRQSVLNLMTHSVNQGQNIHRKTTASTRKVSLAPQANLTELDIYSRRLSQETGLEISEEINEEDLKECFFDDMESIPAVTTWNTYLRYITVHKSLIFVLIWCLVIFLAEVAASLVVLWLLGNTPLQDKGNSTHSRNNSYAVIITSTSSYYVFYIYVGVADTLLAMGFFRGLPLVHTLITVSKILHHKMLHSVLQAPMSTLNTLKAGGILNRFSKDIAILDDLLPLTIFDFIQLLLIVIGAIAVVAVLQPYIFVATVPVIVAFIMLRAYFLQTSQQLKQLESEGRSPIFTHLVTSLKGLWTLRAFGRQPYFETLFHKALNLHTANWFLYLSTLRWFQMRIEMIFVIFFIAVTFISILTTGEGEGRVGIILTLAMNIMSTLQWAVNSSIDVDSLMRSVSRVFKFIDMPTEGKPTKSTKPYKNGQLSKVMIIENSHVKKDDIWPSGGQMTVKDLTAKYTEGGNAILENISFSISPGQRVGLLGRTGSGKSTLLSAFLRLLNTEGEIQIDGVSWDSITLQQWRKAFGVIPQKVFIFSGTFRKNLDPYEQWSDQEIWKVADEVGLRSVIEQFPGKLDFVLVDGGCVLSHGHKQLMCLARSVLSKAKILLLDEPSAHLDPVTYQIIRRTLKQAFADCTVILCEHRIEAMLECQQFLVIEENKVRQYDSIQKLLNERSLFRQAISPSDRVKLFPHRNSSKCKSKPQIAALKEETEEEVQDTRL
Assay: Ussing chamber assay of CFTR-mediated short-circuit currents (identification of potentiator compounds)
Details: potentiator incubated 18-24 hours at 37° C. in combination with 10 μM corrector, in the presence of 20% human serum, CFTR-mediated ISC

- molecule: "Nc1cc(C(F)(F)F)c2nc1-c1nnc(o1)C(O)(C(F)(F)F)CCCCCCC2(O)C(F)(F)F (single isomer, unassigned) [Compound 28]"
  EC50: "> 1 µM"
- molecule: "Nc1cc(C(F)(F)F)c2nc1-c1nnc(o1)C(O)(C(F)(F)F)CCCC(=O)CCC2=O (single isomer, unassigned) [Compound 36]"
  EC50: "> 1 µM"
- molecule: "CC1(N2CCCCC[C@](O)(C(F)(F)F)C3=NN=C(O3)c3nc(c(C(F)(F)F)cc3N)C2=O)CC1 [Compound 94]"
  EC50: "< 0.5 µM"
- molecule: "Nc1cc(C(F)(F)F)c2nc1-c1nnc(o1)[C@@](O)(C(F)(F)F)CCCCCN(Cc1cc(C3CC3)ccc1F)C2=O [Compound 259]"
  EC50: "< 0.5 µM"
- molecule: "CC(C)(C)c1ccc(C2(N3CCCCCC(O)(C(F)(F)F)C4=NN=C(O4)c4nc(c(C(F)(F)F)cc4N)C3=O)CC2)cc1 (single isomer, unassigned) [Compound 227]"
  EC50: "< 0.5 µM"
- molecule: "COC1CCCCCCC(O)(C(F)(F)F)C2=NN=C(O2)c2nc1c(C(F)(F)F)cc2N (single isomer, unassigned) [Compound 13]"
  EC50: "< 0.5 µM"
- molecule: "Nc1cc(C(F)(F)F)c2nc1-c1nnc(o1)[C@@](O)(C(F)(F)F)CCCCCN(Cc1cc(F)cc(C3CCC3)c1)C2=O [Compound 248]"
  EC50: "< 0.5 µM"
- molecule: "CC(C)(C)c1ccc(CN2CCCCC[C@](O)(C(F)(F)F)C3=NN=C(O3)c3nc(c(C(F)(F)F)cc3N)C2=O)cn1 [Compound 119]"
  EC50: "< 0.5 µM"
- molecule: "Nc1cc(C(F)(F)F)c2nc1-c1nnc(o1)[C@@](O)(C(F)(F)F)CCCCCN(Cc1cccc(OC(F)F)c1)C2=O [Compound 254]"
  EC50: "< 0.5 µM"
- molecule: "N#CC1CCCCc2cccc(c2)C(O)(C(F)(F)F)C2=NN=C(O2)c2nc1c(C(F)(F)F)cc2N (stereo not shown) [Compound 63]"
  EC50: "< 0.5 µM"
- molecule: "CCC(C)(C)N1CCCCC[C@](O)(C(F)(F)F)C2=NN=C(O2)c2nc(c(C(F)(F)F)cc2N)C1=O [Compound 90]"
  EC50: "< 0.5 µM"
- molecule: "N#CC1CCCCc2cccc(c2)C(O)(C(F)(F)F)C2=NN=C(O2)c2nc1c(C(F)(F)F)cc2N (stereo not shown) [Compound 64]"
  EC50: "< 0.5 µM"
- molecule: "Nc1cc(C(F)(F)F)c2nc1-c1nnc(o1)[C@@](O)(C(F)(F)F)CCCCCN(C1CS(=O)(=O)C1)C2=O [Compound 103]"
  EC50: "> 1 µM"
